Measured target: Thymidylate synthase (Homo sapiens)
Below, each of the molecules is paired with its reported Kii value.
Use µM as the unit, but write only the number.

Example entries and their recorded answers appear below.
>>> readout_number("C#CCN(Cc1ccc2nc(C)nc(O)c2c1)c1ccc(S(=O)(=O)C(F)(F)F)cc1")
0.028
>>> readout_number("C#CCN(Cc1ccc2nc(C)nc(O)c2c1)c1ccc([S+]([O-])c2ccccc2)cc1 (stereo not given)")
0.11
>>> readout_number("C#CCN(Cc1ccc2nc(C)nc(O)c2c1)c1ccc(S(=O)(=O)N2CCN(C)CC2)cc1")
0.19
>>> readout_number("C#CCN(Cc1ccc2nc(C)nc(O)c2c1)c1ccc(S(=O)(=O)N2CCNCC2)cc1")
0.071
>>> readout_number("C#CCN(Cc1ccc2nc(C)nc(O)c2c1)c1cccc(C)c1")
3.4
>>> readout_number("C#CCN(Cc1ccc2nc(C)nc(O)c2c1)c1ccc(S(N)(=O)=O)cc1")
0.084
>>> readout_number("Cc1nc(O)c2cc(CNc3ccc(S(=O)(=O)c4ccccc4)cc3)ccc2n1")
2.2
>>> readout_number("CCN(Cc1ccc2nc(C)nc(O)c2c1)c1ccc(C(=O)C(F)(F)F)cc1")
0.49

// moving on: another record for Kii
Prompt line: Please report the measured Kii for "C#CCN(Cc1ccc2nc(C)nc(O)c2c1)c1ccc(C#N)c(C(F)(F)F)c1" tested on Thymidylate synthase (Homo sapiens).
Response line: 0.14

---

These compounds were tested on Thymidylate synthase (Homo sapiens); Kis is the recorded read-out.
Give your result in µM as a bare value.

>>> readout_number("C#CCN(Cc1ccc2nc(C)nc(O)c2c1)c1ccc(S(=O)(=O)C(F)(F)F)cc1")
0.021
>>> readout_number("Cc1nc(O)c2cc(CNc3ccc(S(=O)(=O)c4ccccc4)cc3)ccc2n1")
1

Prompt line: Please tell me the measured Kis for "C#CCN(Cc1ccc2nc(C)nc(O)c2c1)c1ccc(Cl)cc1" ; system: Thymidylate synthase (Homo sapiens).
Response line: 0.36

Prompt line: # lookup: Thymidylate synthase (Homo sapiens) Kis, key = "C#CCN(Cc1ccc2nc(C)nc(O)c2c1)c1ccc(S(=O)(=O)NCC(=O)O)c(C(F)(F)F)c1"
Response line: 0.0096

---

Observed log10(Kis) values for Thymidylate synthase (Escherichia coli) are listed in what follows.
Log scale reminder: Kis in µM, then log10 taken.

The cases that follow already have their log10(Kis) on record.
>>> readout_number("C#CCN(Cc1ccc2nc(C)nc(O)c2c1)c1ccc(S(N)(=O)=O)c(C(F)(F)F)c1")
-1.62
>>> readout_number("Cc1nc(O)c2cc(CNc3ccc(S(=O)(=O)c4ccccc4)cc3)ccc2n1")
0.30
>>> readout_number("C#CCN(Cc1ccc2nc(C)nc(O)c2c1)c1ccc(C(=O)NC(CCC(=O)O)C(=O)O)cc1 (stereo not drawn)")
-2.32
>>> readout_number("C#CCN(Cc1ccc2nc(C)nc(O)c2c1)c1ccc(S(=O)(=O)NCC(=O)O)c(C(F)(F)F)c1")
-2.23
>>> readout_number("C#CCN(Cc1ccc2nc(C)nc(S)c2c1)c1cccc(C(F)(F)F)c1")
-0.74
>>> readout_number("C#CCN(Cc1ccc2nc(C)nc(O)c2c1)c1ccc(S(=O)(=O)C(F)(F)F)cc1")
-1.38
>>> readout_number("C#CCN(Cc1ccc2nc(C)nc(O)c2c1)c1cccc(CO)c1")
0.23
>>> readout_number("C#CCN(Cc1ccc2nc(C)nc(O)c2c1)c1cccc(C)c1")
0.53
>>> readout_number("C#CCN(Cc1ccc2nc(C)nc(O)c2c1)c1ccc(C#N)c(C(F)(F)F)c1")
-1.82
>>> readout_number("C#CCN(Cc1ccc2nc(C)nc(O)c2c1)c1ccc(Cl)cc1")
-0.07

Prompt line: Look up and report measured log10(Kis) (Thymidylate synthase (Escherichia coli)) for the following molecule: "C#CCN(Cc1ccc2nc(C)nc(O)c2c1)c1ccc(C#N)c(Cl)c1"
Response line: -1.46

Prompt line: Name the value of log10(Kis) reported for "C#CCN(Cc1ccc2nc(C)nc(O)c2c1)c1cccc(I)c1" when tested on Thymidylate synthase (Escherichia coli).
Response line: -0.48

Prompt line: Find the measured log10(Kis) of "C#CCN(Cc1ccc2nc(C)nc(O)c2c1)c1cccc(Br)c1" with Thymidylate synthase (Escherichia coli) as test system.
Response line: -0.04

Prompt line: Give the observed log10(Kis) of "C#CCN(Cc1ccc2nc(C)nc(O)c2c1)c1ccc(C#N)cc1" for Thymidylate synthase (Escherichia coli).
Response line: -0.82

Prompt line: # return log10(Kis) for "C#CCN(Cc1ccc2nc(C)nc(O)c2c1)c1ccc([N+](=O)[O-])c(C(F)(F)F)c1" , test system: Thymidylate synthase (Escherichia coli)
Response line: -1.42

Prompt line: Give reported log10(Kis) for "C#CCN(Cc1ccc2nc(C)nc(O)c2c1)c1ccc(C(=O)c2ccccc2)cc1" (Thymidylate synthase (Escherichia coli))
Response line: -1.03

---

System: CCRF-CEM
Test method notes: Inhibition of CCRF-CEM (human leukemia) cell growth in vitro.
Format: functional, cell-based
Experimental readout: pIC50
// pIC50: -log10(molar conc.)

The following compounds have reported results that may help.
>>> readout_number("C#CCN(Cc1ccc2nc(C)nc(O)c2c1)c1ccc(S(=O)(=O)N2CCOCC2)cc1")
5.35
>>> readout_number("C#CCN(Cc1ccc2nc(C)nc(O)c2c1)c1ccc(S(=O)(=O)N2CCNCC2)cc1")
4.32
>>> readout_number("CCN(Cc1ccc2nc(C)nc(O)c2c1)c1ccc(S(=O)(=O)c2ccccc2)cc1")
5.57

Prompt line: Dear colleague, please send me the reported pIC50 for "Cc1nc(O)c2cc(CN(C)c3ccc(Cc4ccccc4)cc3)ccc2n1" when you can.
Response line: 5.47

---

// reported log10 Kii for each item listed
Measured target: Thymidylate synthase (Escherichia coli)
Annotation: log10 of Kii, µM basis.

Prompt line: Consider the molecule "C#CCN(Cc1ccc2nc(C)nc(O)c2c1)c1ccc(S(N)(=O)=O)cc1" and give its recorded log10 Kii.
Response line: -0.39

Prompt line: Tell me log10 Kii reported for "C#CCN(Cc1ccc2nc(C)nc(O)c2c1)c1cccc(CO)c1"
Response line: 0.71

Prompt line: Supply log10 Kii value. Item: "C#CCN(Cc1ccc2nc(C)nc(O)c2c1)c1ccc(C(=O)c2ccccc2)cc1"
Response line: -0.33

Prompt line: Hello, please tell me recorded log10 Kii for this one: "C#CCN(Cc1ccc2nc(C)nc(O)c2c1)c1ccc([N+](=O)[O-])cc1"
Response line: -0.77

Prompt line: Give recorded log10 Kii. "C#CCN(Cc1ccc2nc(C)nc(O)c2c1)c1ccc(S(=O)(=O)N2CCN(C)CC2)cc1"
Response line: -0.55

Prompt line: Give reported log10 Kii value for "CCN(Cc1ccc2nc(C)nc(O)c2c1)c1ccc(S(=O)(=O)c2ccccc2)cc1"
Response line: -0.62

Prompt line: # return recorded log10 Kii for input "C#CCN(Cc1ccc2nc(C)nc(O)c2c1)c1ccc(S(=O)(=O)N2CCOCC2)cc1"
Response line: -0.82

Prompt line: Respond only with log10 Kii recorded for "C#CCN(Cc1ccc2nc(C)nc(O)c2c1)c1ccc(C#N)c(C(F)(F)F)c1"
Response line: -1.33

Prompt line: Identify log10 Kii associated with the molecule "C#CCN(Cc1ccc2nc(C)nc(S)c2c1)c1cccc(C(F)(F)F)c1"
Response line: -0.44

Prompt line: Input "C#CCN(Cc1ccc2nc(C)nc(O)c2c1)c1ccc(S(N)(=O)=O)c(C(F)(F)F)c1" , output reported log10 Kii.
Response line: -1.21

Prompt line: Name the recorded log10 Kii of the molecule listed here: "C#CCN(Cc1ccc2nc(C)nc(O)c2c1)c1cccc(I)c1"
Response line: 0.15

Prompt line: Indicate the recorded log10 Kii value for this molecule: "C#CCN(Cc1ccc2nc(C)nc(O)c2c1)c1ccc(Cl)cc1"
Response line: 0.57

---

Test system Thymidylate synthase (Homo sapiens) (UniProt P04818), Kis listed for each of the compounds.
Give just the numeric value; µM need not be written.

>>> readout_number("C#CCN(Cc1ccc2nc(C)nc(O)c2c1)c1ccc(C(=O)NC(CCC(=O)O)C(=O)O)cc1 (stereo unspecified)")
0.0085

Prompt line: For the compound "C#CCN(Cc1ccc2nc(C)nc(O)c2c1)c1cccc(CC)c1" , give its reported Kis.
Response line: 2.7

Prompt line: Retrieve Kis measured for "C#CCN(Cc1ccc2nc(C)nc(O)c2c1)c1cccc(I)c1" and print it.
Response line: 0.16

Prompt line: Return the recorded Kis value; entry: "C#CCN(Cc1ccc2nc(C)nc(O)c2c1)c1cccc(Br)c1"
Response line: 0.65

Prompt line: Report Kis, nothing else, for this compound: "C#CCN(Cc1ccc2nc(C)nc(O)c2c1)c1cccc(C#C)c1"
Response line: 0.41

Prompt line: Answer with the recorded Kis for the compound listed here: "CCN(Cc1ccc2nc(C)nc(O)c2c1)c1ccc(C(=O)C(F)(F)F)cc1"
Response line: 0.13
